Molecular target: rNaV1.4 (Rattus norvegicus, UniProt P15390)
Sequence (P15390 whole entry): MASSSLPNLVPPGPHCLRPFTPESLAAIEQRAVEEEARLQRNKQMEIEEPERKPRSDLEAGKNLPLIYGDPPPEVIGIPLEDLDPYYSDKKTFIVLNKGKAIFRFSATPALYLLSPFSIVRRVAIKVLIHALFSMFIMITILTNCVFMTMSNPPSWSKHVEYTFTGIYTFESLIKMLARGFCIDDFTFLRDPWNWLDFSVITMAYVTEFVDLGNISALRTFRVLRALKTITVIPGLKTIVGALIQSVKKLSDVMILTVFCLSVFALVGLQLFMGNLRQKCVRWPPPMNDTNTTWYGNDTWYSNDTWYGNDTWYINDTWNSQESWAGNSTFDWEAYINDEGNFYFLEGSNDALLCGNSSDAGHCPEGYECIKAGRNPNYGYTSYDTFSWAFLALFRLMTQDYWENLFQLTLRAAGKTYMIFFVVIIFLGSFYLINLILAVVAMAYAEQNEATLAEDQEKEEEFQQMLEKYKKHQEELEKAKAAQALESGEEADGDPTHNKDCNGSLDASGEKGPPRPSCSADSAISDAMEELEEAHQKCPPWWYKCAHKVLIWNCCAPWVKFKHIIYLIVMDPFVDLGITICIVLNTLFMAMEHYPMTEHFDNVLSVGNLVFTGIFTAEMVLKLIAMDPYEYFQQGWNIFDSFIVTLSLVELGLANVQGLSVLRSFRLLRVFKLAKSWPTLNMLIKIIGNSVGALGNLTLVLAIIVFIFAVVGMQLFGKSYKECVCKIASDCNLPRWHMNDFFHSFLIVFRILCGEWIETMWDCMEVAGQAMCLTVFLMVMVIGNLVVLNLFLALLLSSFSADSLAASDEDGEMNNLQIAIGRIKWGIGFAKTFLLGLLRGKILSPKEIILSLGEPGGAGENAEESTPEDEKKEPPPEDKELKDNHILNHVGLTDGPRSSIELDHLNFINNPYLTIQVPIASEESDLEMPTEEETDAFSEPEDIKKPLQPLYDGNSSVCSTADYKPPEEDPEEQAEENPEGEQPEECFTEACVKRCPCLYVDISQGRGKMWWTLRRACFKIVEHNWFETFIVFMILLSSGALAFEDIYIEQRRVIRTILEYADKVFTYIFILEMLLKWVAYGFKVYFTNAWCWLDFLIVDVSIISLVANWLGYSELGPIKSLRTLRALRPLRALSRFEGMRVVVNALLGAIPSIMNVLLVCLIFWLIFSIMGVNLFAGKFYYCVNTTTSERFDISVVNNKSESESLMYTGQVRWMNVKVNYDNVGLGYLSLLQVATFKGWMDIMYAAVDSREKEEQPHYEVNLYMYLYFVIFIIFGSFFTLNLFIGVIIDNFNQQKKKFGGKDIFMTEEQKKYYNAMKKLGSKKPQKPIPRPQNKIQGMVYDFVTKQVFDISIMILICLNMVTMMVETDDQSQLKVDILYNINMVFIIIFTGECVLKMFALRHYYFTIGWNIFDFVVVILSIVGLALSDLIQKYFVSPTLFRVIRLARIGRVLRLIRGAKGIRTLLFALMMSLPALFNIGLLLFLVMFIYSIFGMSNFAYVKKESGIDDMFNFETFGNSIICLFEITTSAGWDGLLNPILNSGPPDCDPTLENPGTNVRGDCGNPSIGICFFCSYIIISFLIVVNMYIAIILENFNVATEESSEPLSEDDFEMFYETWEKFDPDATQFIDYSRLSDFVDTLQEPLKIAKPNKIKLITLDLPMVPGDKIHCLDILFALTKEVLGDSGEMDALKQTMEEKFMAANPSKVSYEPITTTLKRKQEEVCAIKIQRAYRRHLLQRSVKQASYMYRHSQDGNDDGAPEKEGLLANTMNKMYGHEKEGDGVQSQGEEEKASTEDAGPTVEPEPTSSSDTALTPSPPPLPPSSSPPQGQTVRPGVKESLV
Sequence (Q00954 19-218, further chain): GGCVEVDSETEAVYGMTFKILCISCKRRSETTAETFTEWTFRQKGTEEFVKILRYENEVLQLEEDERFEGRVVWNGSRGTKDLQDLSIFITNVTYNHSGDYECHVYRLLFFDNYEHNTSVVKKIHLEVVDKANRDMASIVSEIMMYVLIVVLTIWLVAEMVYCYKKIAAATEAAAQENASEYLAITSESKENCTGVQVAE
Test: Two-electrode voltage-clamp on Xenopus laevis oocytes expressing NaV1.4
Conditions: read-out: Maximum % inhibition NaV1.4, peptide at 100 μM
Where a SMILES comes first, the peptide text is derived from it. Bridges are numbered along the chain shown (N, C = ends).
observed.property: inhibition at 100 µM (%)

[[record]]
molecule = "C[C@@H]1NC(=O)[C@H](Cc2ccc(O)cc2)NC(=O)[C@H](CCCNC(=N)N)NC(=O)[C@H](CCCNC(=N)N)NC(=O)[C@@H](N)CSSC[C@@H](C(N)=O)NC(=O)[C@H](CCCNC(=N)N)NC(=O)[C@H](CC(N)=O)NC(=O)[C@H](Cc2c[nH]c3ccccc23)NC(=O)[C@H](CCCNC(=N)N)NC1=O [PnCS1[W4Y], CRRYARWNRC ^*] (H-CRRYARWNRC-NH2; disulfide 1-10)"
meas_value = 33

[[record]]
molecule = "C[C@@H]1NC(=O)[C@H](Cc2c[nH]c3ccccc23)NC(=O)[C@H](CCCNC(=N)N)NC(=O)[C@H](CCCNC(=N)N)NC(=O)[C@@H](N)CSSC[C@@H](C(N)=O)NC(=O)[C@H](CCCNC(=N)N)NC(=O)[C@H](CC(N)=O)NC(=O)[C@H](Cc2c[nH]c3ccccc23)NC(=O)[C@H](CCCNC(=N)N)NC1=O [PnCS1, CRRWARWNRC ^*] (H-CRRWARWNRC-NH2; disulfide 1-10)"
meas_value = 94

[[record]]
molecule = "C[C@@H]1NC(=O)[C@H](Cc2c[nH]c3ccccc23)NC(=O)[C@H](CCC(=O)O)NC(=O)[C@H](CCCNC(=N)N)NC(=O)[C@@H](N)CSSC[C@@H](C(N)=O)NC(=O)[C@H](CCCNC(=N)N)NC(=O)[C@H](CC(N)=O)NC(=O)[C@H](Cc2c[nH]c3ccccc23)NC(=O)[C@H](CCCNC(=N)N)NC1=O [PnCS1[R3E], CREWARWNRC ^*] (H-CREWARWNRC-NH2; disulfide 1-10)"
meas_value = 36


----------
rNaV1.2 (Rattus norvegicus) pIC50 data
pIC50: −log10 of the molar value. Where a SMILES comes first, the peptide text is derived from it. Bridges are numbered along the chain shown (N, C = ends).
observed.property: pIC50

[[record]]
compound = "C[C@@H]1NC(=O)[C@H](Cc2c[nH]c3ccccc23)NC(=O)[C@H](CCCNC(=N)N)NC(=O)[C@H](CCCNC(=N)N)NC(=O)[C@@H](N)CSSC[C@@H](C(N)=O)NC(=O)[C@H](CCC(=O)O)NC(=O)[C@H](CC(N)=O)NC(=O)[C@H](Cc2c[nH]c3ccccc23)NC(=O)[C@H](CCCNC(=N)N)NC1=O [PnCS1[R9E], CRRWARWNEC ^*] (H-CRRWARWNEC-NH2; disulfide 1-10)"
inequality_sign = "<"
meas_value = 4.00

[[record]]
compound = "N=C(N)NCCC[C@@H]1NC(=O)[C@H](CC(N)=O)NC(=O)[C@H](Cc2c[nH]c3ccccc23)NC(=O)[C@H](CCCNC(=N)N)NC(=O)[C@H](CCCCN)NC(=O)[C@H](Cc2c[nH]c3ccccc23)NC(=O)[C@H](CCCNC(=N)N)NC(=O)[C@H](CCCNC(=N)N)NC(=O)[C@@H](N)CSSC[C@@H](C(N)=O)NC1=O [PnCS1[A5K], CRRWKRWNRC ^*] (H-CRRWKRWNRC-NH2; disulfide 1-10)"
inequality_sign = "="
meas_value = 5.92

[[record]]
compound = "C[C@@H]1NC(=O)[C@H](Cc2c[nH]c3ccccc23)NC(=O)[C@H](CCCNC(=N)N)NC(=O)[C@H](CCCNC(=N)N)NC(=O)[C@@H](N)CSSC[C@@H](C(N)=O)NC(=O)[C@H](CCCNC(=N)N)NC(=O)[C@H](CC(N)=O)NC(=O)[C@H](Cc2c[nH]c3ccccc23)NC(=O)[C@H](CCCCN)NC1=O [PnCS1[R6K], CRRWAKWNRC ^*] (H-CRRWAKWNRC-NH2; disulfide 1-10)"
inequality_sign = "="
meas_value = 5.06


----------
Measured inhibition at 100 µM by item
Target: UniProtKB Q9WTU3
Sequence (Q9WTU3 whole entry): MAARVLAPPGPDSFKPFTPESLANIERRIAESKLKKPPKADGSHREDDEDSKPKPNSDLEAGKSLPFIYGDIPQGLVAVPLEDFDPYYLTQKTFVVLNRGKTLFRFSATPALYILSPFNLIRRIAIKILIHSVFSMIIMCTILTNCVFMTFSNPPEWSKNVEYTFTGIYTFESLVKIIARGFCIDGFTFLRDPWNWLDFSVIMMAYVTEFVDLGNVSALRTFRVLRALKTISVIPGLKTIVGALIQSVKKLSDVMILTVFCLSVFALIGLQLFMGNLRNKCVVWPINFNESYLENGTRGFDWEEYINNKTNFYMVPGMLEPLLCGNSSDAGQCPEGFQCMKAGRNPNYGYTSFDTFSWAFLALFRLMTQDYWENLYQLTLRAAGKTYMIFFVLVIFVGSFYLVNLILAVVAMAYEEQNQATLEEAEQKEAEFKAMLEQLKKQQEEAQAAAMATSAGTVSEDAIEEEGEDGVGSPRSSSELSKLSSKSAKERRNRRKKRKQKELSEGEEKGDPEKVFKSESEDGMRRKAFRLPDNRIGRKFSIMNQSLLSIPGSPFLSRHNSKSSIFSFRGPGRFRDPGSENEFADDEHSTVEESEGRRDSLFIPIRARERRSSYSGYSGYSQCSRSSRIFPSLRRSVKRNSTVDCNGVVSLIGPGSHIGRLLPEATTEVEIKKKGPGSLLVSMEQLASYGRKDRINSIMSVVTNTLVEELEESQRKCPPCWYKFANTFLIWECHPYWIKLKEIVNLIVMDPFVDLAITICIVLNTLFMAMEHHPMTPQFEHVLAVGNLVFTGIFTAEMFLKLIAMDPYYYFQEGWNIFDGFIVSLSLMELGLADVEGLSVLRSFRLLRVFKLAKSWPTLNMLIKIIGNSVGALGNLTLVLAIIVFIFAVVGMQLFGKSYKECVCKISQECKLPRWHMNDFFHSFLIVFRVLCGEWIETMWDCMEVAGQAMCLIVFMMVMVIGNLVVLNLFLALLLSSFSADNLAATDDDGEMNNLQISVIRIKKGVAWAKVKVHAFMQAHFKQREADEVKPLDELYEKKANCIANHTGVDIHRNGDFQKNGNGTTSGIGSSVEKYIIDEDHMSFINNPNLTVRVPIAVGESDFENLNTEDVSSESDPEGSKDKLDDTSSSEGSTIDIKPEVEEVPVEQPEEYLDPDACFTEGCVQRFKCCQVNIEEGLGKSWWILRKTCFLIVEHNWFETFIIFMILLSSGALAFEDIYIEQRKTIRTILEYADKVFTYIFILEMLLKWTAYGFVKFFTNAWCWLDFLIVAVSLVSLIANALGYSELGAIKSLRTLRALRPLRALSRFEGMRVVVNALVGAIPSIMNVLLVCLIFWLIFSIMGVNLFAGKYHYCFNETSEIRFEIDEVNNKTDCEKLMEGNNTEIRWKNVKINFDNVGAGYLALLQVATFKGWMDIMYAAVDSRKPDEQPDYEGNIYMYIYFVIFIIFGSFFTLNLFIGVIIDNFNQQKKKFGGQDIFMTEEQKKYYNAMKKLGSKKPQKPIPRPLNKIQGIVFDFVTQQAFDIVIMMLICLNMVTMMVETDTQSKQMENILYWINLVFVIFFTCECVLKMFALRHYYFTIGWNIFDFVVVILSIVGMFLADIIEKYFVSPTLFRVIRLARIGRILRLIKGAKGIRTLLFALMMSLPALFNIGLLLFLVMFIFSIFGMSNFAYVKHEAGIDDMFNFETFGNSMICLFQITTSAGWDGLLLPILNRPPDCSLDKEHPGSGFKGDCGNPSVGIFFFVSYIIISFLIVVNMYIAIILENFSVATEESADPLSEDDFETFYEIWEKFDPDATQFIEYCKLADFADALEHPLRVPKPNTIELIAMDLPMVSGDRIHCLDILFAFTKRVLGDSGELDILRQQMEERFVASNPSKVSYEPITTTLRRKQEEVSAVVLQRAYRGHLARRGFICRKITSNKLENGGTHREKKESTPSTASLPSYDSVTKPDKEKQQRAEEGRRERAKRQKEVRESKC
Test: Two-electrode voltage-clamp on Xenopus laevis oocytes expressing NaV1.6
Conditions: read-out: Maximum % inhibition NaV1.6, peptide at 100 μM
Where a SMILES comes first, the peptide text is derived from it. Bridges are numbered along the chain shown (N, C = ends).
observed.property: inhibition at 100 µM (%)

[[record]]
compound = "C[C@@H]1NC(=O)[C@H](Cc2c[nH]c3ccccc23)NC(=O)[C@H](CCCNC(=N)N)NC(=O)[C@H](CCCNC(=N)N)NC(=O)[C@@H](N)CSSC[C@@H](C(N)=O)NC(=O)[C@H](CCCNC(=N)N)NC(=O)[C@H](CC(N)=O)NC(=O)[C@H](CCC(=O)O)NC(=O)[C@H](CCCNC(=N)N)NC1=O [PnCS1[W7E], CRRWARENRC ^*] (H-CRRWARENRC-NH2; disulfide 1-10)"
observed_property = "inhibition at 100 µM"
units_label = "%"
meas_value = 27

[[record]]
compound = "C[C@@H]1NC(=O)[C@H](Cc2c[nH]c3ccccc23)NC(=O)[C@H](CCCNC(=N)N)NC(=O)[C@H](CCCNC(=N)N)NC(=O)[C@@H](N)CSSC[C@@H](C(N)=O)NC(=O)[C@H](CCCNC(=N)N)NC(=O)[C@H](CCCCN)NC(=O)[C@H](Cc2c[nH]c3ccccc23)NC(=O)[C@H](CCCNC(=N)N)NC1=O [PnCS1[N8K], CRRWARWKRC ^*] (H-CRRWARWKRC-NH2; disulfide 1-10)"
observed_property = "inhibition at 100 µM"
units_label = "%"
meas_value = 92

[[record]]
compound = "N=C(N)NCCC[C@@H]1NC(=O)[C@H](CC(N)=O)NC(=O)[C@H](Cc2c[nH]c3ccccc23)NC(=O)[C@H](CCCNC(=N)N)NC(=O)[C@H](CCCCN)NC(=O)[C@H](Cc2c[nH]c3ccccc23)NC(=O)[C@H](CCCNC(=N)N)NC(=O)[C@H](CCCNC(=N)N)NC(=O)[C@@H](N)CSSC[C@@H](C(N)=O)NC1=O [PnCS1[A5K], CRRWKRWNRC ^*] (H-CRRWKRWNRC-NH2; disulfide 1-10)"
observed_property = "inhibition at 100 µM"
units_label = "%"
meas_value = 93


----------
Where a SMILES comes first, the peptide text is derived from it. Bridges are numbered along the chain shown (N, C = ends).
Measured IC50 on rNaV1.4 (Rattus norvegicus) follows.
observed.property: IC50 (nM)

[[record]]
molecule = "C[C@@H]1NC(=O)[C@H](Cc2c[nH]c3ccccc23)NC(=O)[C@H](CCCNC(=N)N)NC(=O)[C@H](CCCNC(=N)N)NC(=O)[C@@H](N)CSSC[C@@H](C(N)=O)NC(=O)[C@H](CCCNC(=N)N)NC(=O)[C@H](CC(N)=O)NC(=O)[C@H](Cc2c[nH]c3ccccc23)NC(=O)[C@H](CCC(=O)O)NC1=O [PnCS1[R6E], CRRWAEWNRC ^*] (H-CRRWAEWNRC-NH2; disulfide 1-10)"
units_label = "nM"
inequality_sign = ">"
meas_value = 100000

[[record]]
molecule = "N=C(N)NCCC[C@@H]1NC(=O)[C@H](CC(N)=O)NC(=O)[C@H](Cc2c[nH]c3ccccc23)NC(=O)[C@H](CCCNC(=N)N)NC(=O)[C@H](CCCCN)NC(=O)[C@H](Cc2c[nH]c3ccccc23)NC(=O)[C@H](CCCNC(=N)N)NC(=O)[C@H](CCCNC(=N)N)NC(=O)[C@@H](N)CSSC[C@@H](C(N)=O)NC1=O [PnCS1[A5K], CRRWKRWNRC ^*] (H-CRRWKRWNRC-NH2; disulfide 1-10)"
units_label = "nM"
inequality_sign = "="
meas_value = 1900

[[record]]
molecule = "C[C@@H]1NC(=O)[C@H](Cc2c[nH]c3ccccc23)NC(=O)[C@H](CCCNC(=N)N)NC(=O)[C@H](CCCNC(=N)N)NC(=O)[C@@H](N)CSSC[C@@H](C(N)=O)NC(=O)[C@H](CCCNC(=N)N)NC(=O)[C@H](CC(N)=O)NC(=O)[C@H](Cc2ccc(O)cc2)NC(=O)[C@H](CCCNC(=N)N)NC1=O [PnCS1[W7Y], CRRWARYNRC ^*] (H-CRRWARYNRC-NH2; disulfide 1-10)"
units_label = "nM"
inequality_sign = "="
meas_value = 7800

[[record]]
molecule = "C[C@@H]1NC(=O)[C@H](Cc2c[nH]c3ccccc23)NC(=O)[C@H](CCCNC(=N)N)NC(=O)[C@H](CCCNC(=N)N)NC(=O)[C@@H](N)CSSC[C@@H](C(N)=O)NC(=O)[C@H](CCCNC(=N)N)NC(=O)[C@H](CC(N)=O)NC(=O)[C@H](Cc2c[nH]c3ccccc23)NC(=O)[C@H](CCCNC(=N)N)NC1=O [PnCS1, CRRWARWNRC ^*] (H-CRRWARWNRC-NH2; disulfide 1-10)"
units_label = "nM"
inequality_sign = "="
meas_value = 600

[[record]]
molecule = "C[C@@H]1NC(=O)[C@H](Cc2c[nH]c3ccccc23)NC(=O)[C@H](CCCCN)NC(=O)[C@H](CCCNC(=N)N)NC(=O)[C@@H](N)CSSC[C@@H](C(N)=O)NC(=O)[C@H](CCCNC(=N)N)NC(=O)[C@H](CC(N)=O)NC(=O)[C@H](Cc2c[nH]c3ccccc23)NC(=O)[C@H](CCCNC(=N)N)NC1=O [PnCS1[R3K], CRKWARWNRC ^*] (H-CRKWARWNRC-NH2; disulfide 1-10)"
units_label = "nM"
inequality_sign = "="
meas_value = 600

